Molecular target: Human CYP8B1 (Homo sapiens)
Sequence (Q9UNU6 whole entry): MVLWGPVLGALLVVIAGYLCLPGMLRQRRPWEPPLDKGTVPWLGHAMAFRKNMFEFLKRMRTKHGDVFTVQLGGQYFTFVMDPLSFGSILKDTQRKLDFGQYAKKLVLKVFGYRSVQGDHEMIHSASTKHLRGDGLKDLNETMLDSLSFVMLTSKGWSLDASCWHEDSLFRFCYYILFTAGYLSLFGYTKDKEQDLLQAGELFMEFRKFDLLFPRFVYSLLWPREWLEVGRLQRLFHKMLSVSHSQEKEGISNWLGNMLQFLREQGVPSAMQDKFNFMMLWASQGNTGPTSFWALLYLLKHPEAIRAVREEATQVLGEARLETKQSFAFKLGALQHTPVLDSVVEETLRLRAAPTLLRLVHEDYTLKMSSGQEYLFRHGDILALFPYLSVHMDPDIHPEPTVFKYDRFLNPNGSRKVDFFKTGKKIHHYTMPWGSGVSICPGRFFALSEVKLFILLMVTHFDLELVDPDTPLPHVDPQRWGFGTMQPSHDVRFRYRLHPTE
Test: Human CYP8B1 Liver Microsome Assay
Details: Human CYP8B1 IC50, human liver microsomes; substrate 7a-hydroxy-4-cholesten-3-one, NADPH; RapidFire MS detection of 7α,12α-dihydroxy-4-cholesten-3-one
pIC50: −log10 of the molar value.
As shown below, each of these compounds has a reported pIC50 value.
RECORDED_METRIC: pIC50

COMPOUND | OBSERVED_RESULT
Cc1nc2ccc(F)c(F)c2c(N2CCC(C(=O)N3CCn4c(nnc4C(F)(F)F)C3)CC2)c1C#N | 6.11
Cc1nc2ccc(C(F)F)cc2c(N2CCC(C(=O)N3CCn4c(nnc4C(F)(F)F)C3)CC2)c1C#N | 7.11
C[C@@H]1CN(c2c(C#N)c(CO)nc3ccc(Cl)cc23)CC[C@@H]1C(=O)N1CCn2c(nnc2C(F)(F)F)C1 | 8.35
COc1ccc2ncc(C#N)c(N3CC[C@H](C(=O)N4CCn5c(nnc5C(F)(F)F)C4)[C@H](C)C3)c2c1 | 9.29
C[C@@H]1CN(c2c(C#N)c(C(F)F)nc3ccc(Cl)cc23)CC[C@@H]1C(=O)N1CCn2c(nnc2C(F)(F)F)C1 (single isomer, unassigned) [Example 57a] | 7.39
C[C@@H]1CN(c2c(C#N)cnc3cc(C(F)F)ccc23)CC[C@@H]1C(=O)N1CCn2c(nnc2C(F)(F)F)C1 | 9.30
C[C@@H]1CN(c2c(C#N)cnc3cc(OC(F)(F)F)ccc23)CC[C@@H]1C(=O)N1CCn2c(nnc2C(F)(F)F)C1 | 9.66
